Exercise: for every item that follows, state its recorded TGI.
System: UACC-257 melanoma
Assay: NCI tumour cell line growth inhibition, 48 h
Lab book: enter the figure in µM, no units written.

# return TGI for OCCCCC#Cc1ccccc1C#Cc1ccccc1 , test system: UACC-257 melanoma
43.8

# return TGI for COc1ccc(/C=C/C(=O)c2cc3c(N)c(C(=O)Nc4ccccc4Cl)sc3nc2C)cc1 , test system: UACC-257 melanoma
13.5

# return TGI for C=C1[C@@H](C)[C@H]2[C@H](Cc3ccccc3)NC(=O)[C@]23OC(=O)/C=C/[C@H](O)CCC[C@@H](C)C/C=C/[C@H]3[C@@H]1O , test system: UACC-257 melanoma
59.9

# return TGI for CCOC(=O)COC1=Nc2cc(OC)c(OC)c3nc(Cl)cc(c23)C1=O , test system: UACC-257 melanoma
3.21

# return TGI for Oc1ccc(/C=N\Nc2ccccn2)c(O)c1 , test system: UACC-257 melanoma
16.7

----------
Test system: SNB-75 CNS
Assay: NCI tumour cell line growth inhibition, 48 h
recorded.endpoint: TGI (µM)
Lab book: enter the figure in µM, no units written.

# return TGI for CCN(Cc1cccc(OC)c1)c1ccc(CO)c(Cl)c1 , test system: SNB-75 CNS
62

# return TGI for CCCC[C@H]1C(=O)O[C@H](C)[C@H](NC(=O)c2cccc(NC=O)c2O)C(=O)O[C@@H](C)[C@@H]1OC(=O)CC(C)C , test system: SNB-75 CNS
59.9

# return TGI for CC(C)NCCNC(=O)c1ccccc1Nc1c(Cl)cccc1Cl , test system: SNB-75 CNS
16.3

# return TGI for Oc1ccc(/C=N\Nc2ccccn2)c(O)c1 , test system: SNB-75 CNS
6.62

# return TGI for Cc1cc2nc3c(N)nn(CCN(C)C)c3nc2cc1C , test system: SNB-75 CNS
97.9

# return TGI for CCOC(=O)COC1=Nc2cc(OC)c(OC)c3nc(Cl)cc(c23)C1=O , test system: SNB-75 CNS
5.87

# return TGI for O=c1oc2ccccc2c(O)c1C(c1ccc(O)cc1)c1c(O)c2ccccc2oc1=O , test system: SNB-75 CNS
97.8

# return TGI for CCOC(=O)c1nc2ccccc2nc1Nc1ccc(F)cc1 , test system: SNB-75 CNS
18.5

# return TGI for O=C1c2cccc3cc([N+](=O)[O-])cc(c23)C(=O)N1CCNCCNCCNCCN1C(=O)c2cccc3cc([N+](=O)[O-])cc(c23)C1=O , test system: SNB-75 CNS
0.133

# return TGI for CC(=O)OC1C(=O)C(O)C(C)OC1O[C@@H]1C[C@@]2(C)[C@@H]3CC=C4[C@@H](C[C@H](O)C(=O)C4(C)C)[C@]3(C)C(=O)C[C@]2(C)[C@H]1[C@@](C)(O)C(=O)/C=C/C(C)(C)O (stereo not given in full) , test system: SNB-75 CNS
1.47

----------
Tested on: MALME-3M melanoma
Assay: NCI tumour cell line growth inhibition, 48 h
recorded.endpoint: GI50

Respond only with GI50 recorded for OCCCCC#Cc1ccccc1C#Cc1ccccc1
16.9 µM

Respond only with GI50 recorded for COP(=O)(OC)C(NC(c1ccccc1)c1ccccc1)c1ccc2c(c1)OCO2 (stereo not given)
27.4 µM

Respond only with GI50 recorded for OCc1cn(Cc2cccc(Cl)c2)c2ccccc12
12.3 µM

Respond only with GI50 recorded for COc1ccc(/C=C/C(=O)c2cc3c(N)c(C(=O)Nc4ccccc4Cl)sc3nc2C)cc1
0.736 µM

Respond only with GI50 recorded for N[C@@H](Cc1c[nH]c2ccccc12)C(=O)NC1CCN(C(=O)c2c[nH]c3ccccc23)CC1
77.5 µM

Respond only with GI50 recorded for CC(C)(C)N1CCC1C(N)=O (stereo not given)
> 100 µM

Respond only with GI50 recorded for Cc1cn(C2CC(F)C(CO)O2)c(=O)[nH]c1=O (stereo not given)
> 100 µM

Respond only with GI50 recorded for Cc1ccc(C(CN(C)C)C(=O)c2ccccc2)cc1 (stereo not given)
2.74 µM

Respond only with GI50 recorded for CCN(CC)c1ccc(/C=C\c2cc(C)c3cc(C)ccc3n2)cc1
4.68 µM

Respond only with GI50 recorded for NC(=O)c1cnc(N[C@@H]2CCCC[C@@H]2N)nc1Nc1cccc(-n2nccn2)c1
3.06 µM

----------
Exercise: for every item that follows, state its recorded TGI.
Tested on: OVCAR-3 ovarian
Assay: NCI tumour cell line growth inhibition, 48 h
Where a SMILES comes first, the peptide text is derived from it.

# return TGI for COCCn1cc(-c2csc(-c3c[nH]c4ccccc34)n2)c2cccnc21 , test system: OVCAR-3 ovarian
> 100 µM

# return TGI for Cc1ccc(C(=O)NN=C(/N=N/c2cccc(C)c2)c2ccc(N(C)C)cc2)cc1 , test system: OVCAR-3 ovarian
> 100 µM

# return TGI for C/C(=N/S(=O)(=O)c1ccc(Cl)c(Cl)c1)OCC(C)(C)C , test system: OVCAR-3 ovarian
> 100 µM

# return TGI for O=S(=O)([O-])c1cccc2cccc(N=Cc3ccccc3[O-])c12.O=S(=O)([O-])c1cccc2cccc(N=Cc3ccccc3[O-])c12.[O]=[U]=[O] , test system: OVCAR-3 ovarian
> 100 µM

# return TGI for O=c1cnc2cc3ccccc3cc2[nH]1 , test system: OVCAR-3 ovarian
> 100 µM

# return TGI for O=C1NC(=S)N/C1=C\c1ccc(Sc2ccccc2C(=O)O)s1 , test system: OVCAR-3 ovarian
> 100 µM

# return TGI for Cc1cc2nc3c(N)nn(CCN(C)C)c3nc2cc1C , test system: OVCAR-3 ovarian
> 100 µM

# return TGI for CCC(C)C(NC(=O)C1CCCN1)C(=O)NC(C(=O)NCC(=O)NC(CC(N)=O)C(=O)NC(CC(C)C)C(=O)NC(CC(C)C)C(=O)NC(CCCCN)C(N)=O)C(C)C (stereo unspecified) (H-PIVGNLLK-NH2; configuration not given here) , test system: OVCAR-3 ovarian
> 75 µM

# return TGI for O=Cc1c(-c2cc(O)ccc2O)nc2sccn12 , test system: OVCAR-3 ovarian
6.47 µM

# return TGI for CCOc1ccccc1N=NC1C(=O)N(C(=O)CC(=O)Nc2ccccc2OC)N=C1C (stereo unspecified) , test system: OVCAR-3 ovarian
> 100 µM

# return TGI for COC(=O)C(CCS(=O)(=O)CC(=O)C(=O)Nc1cccc(C(C)=O)c1)C(=O)OC , test system: OVCAR-3 ovarian
> 100 µM

# return TGI for OCc1cn(Cc2cccc(Cl)c2)c2ccccc12 , test system: OVCAR-3 ovarian
1.1 µM

# return TGI for CCCCCCCCCCCCCCCCCC(=O)OCC(CN(C)CCN(C)C)OC(=O)CCCCCCCCCCCCCCCCC (stereo unspecified) , test system: OVCAR-3 ovarian
> 100 µM

# return TGI for O=C(NCCNCCO)N/N=C/c1ccccc1 , test system: OVCAR-3 ovarian
> 100 µM

# return TGI for COc1ccccc1NC(=O)CSC(N)=O , test system: OVCAR-3 ovarian
> 100 µM

# return TGI for Cc1ccc(C(CN(C)C)C(=O)c2ccccc2)cc1 (stereo unspecified) , test system: OVCAR-3 ovarian
3.55 µM

----------
Test system: NCI-H226 lung
Assay: NCI tumour cell line growth inhibition, 48 h
recorded.endpoint: GI50

Respond only with GI50 recorded for N#Cc1c(C(=O)c2ccccc2)cnn1-c1ccccc1
> 25 µM

Respond only with GI50 recorded for CCN(CC)c1ccc(/C=C\c2cc(C)c3cc(C)ccc3n2)cc1
7.29 µM

Respond only with GI50 recorded for CC1=C([Se]CC(OC(=O)CC[Se]c2ccccc2)C(=O)NCCCCCC(=O)OCc2ccccc2)C(=O)c2ccccc2C1=O (stereo not given)
2.75 µM

Respond only with GI50 recorded for Oc1ccc(Cc2ccc(O)c3ncccc23)c2cccnc12
0.373 µM

Respond only with GI50 recorded for C#Cc1cccc(Nc2ncnc3cc(OCCOC)c(OCCOC)cc23)c1
47.4 µM

Respond only with GI50 recorded for C[C@@H]1C=C(CCCCCCCCCCC[C@H](O)[C@@H]2CCC(=O)O2)C(=O)O1
15.9 µM

Respond only with GI50 recorded for COc1ccc2[nH]c(-c3ccccn3)cc(=O)c2c1
36.6 µM

Respond only with GI50 recorded for Cc1ccc(C(=O)Nc2ccc(CN3CCN(C)CC3)c(C(F)(F)F)c2)cc1C#Cc1cnc(N)cc1C#N
0.155 µM

Respond only with GI50 recorded for CCCCn1c2cc(OCc3cn(-c4ccc(Cl)cc4)nn3)ccc2c2ccnc(C)c21
5.51 µM

Respond only with GI50 recorded for N[C@@H](Cc1c[nH]c2ccccc12)C(=O)NC1CCN(C(=O)c2c[nH]c3ccccc23)CC1
> 100 µM

----------
Exercise: for every item that follows, state its recorded TGI.
System: CCRF-CEM leukemia
Assay: NCI tumour cell line growth inhibition, 48 h

Respond only with TGI recorded for COC(C[C@H]1CCCC[C@]1(O)/C(=C\CO[Si](C(C)C)(C(C)C)C(C)C)Sc1ccccc1)OC
> 100 µM

Respond only with TGI recorded for Cn1c(=O)[nH]n(-c2ccc3ccccc3c2)c1=O
> 100 µM

Respond only with TGI recorded for CC[C@]1(O)CC2CN(CCc3c([nH]c4ccccc34)[C@@](C(=O)OC)(c3cc4c(cc3OC)N(C)[C@H]3[C@@](O)(C(=O)OC)[C@H](OC(C)=O)[C@]5(CC)C=CCN6CC[C@]43[C@@H]65)C2)C1 (some centres undefined)
18.5 µM

Respond only with TGI recorded for CCCCCCCCCC(=O)CC(=O)c1ccc(O)cc1O
> 100 µM
